Tested On: STARD4 (Homo sapiens, UniProt Q96DR4, C75S)
Construct: STARD4(2-205; C75S); made in house; host or cells: E. coli BL21(DE3)
Sequence (Q96DR4 2-205 C75S): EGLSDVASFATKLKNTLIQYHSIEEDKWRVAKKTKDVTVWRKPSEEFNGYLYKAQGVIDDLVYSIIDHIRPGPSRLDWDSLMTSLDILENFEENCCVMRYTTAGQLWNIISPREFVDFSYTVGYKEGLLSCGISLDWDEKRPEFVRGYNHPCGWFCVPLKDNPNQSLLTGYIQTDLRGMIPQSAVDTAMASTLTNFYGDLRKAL
Experiment Notes: Differential scanning fluorimetry (DSF), STARD4
Assay type: binding
Measurement Conditions: single dose, Dose = 10 µM
Excerpt: Protein expression constructs Human ASTER domains of Aster-A(359-547), -B(364-552) and -C(318-504) were subcloned into a pGEX-6p-2rbs vector, thus introducing the cloning artifact ‘GPLGS’.3 The pGEX-6P-1-GST-OSBP(377- […] a gift from James H. Hurley (University of California).4 The pHIS_2His6_Thrombin_STARD4(2-205;C75S) plasmid was a gift from Young Jun Im (Chonnam National University).5 STARD5A was a gift from Nicola Burgess-Brown (Addgene plasmid #42392; http://n2t.net/addgene:42392; […]
Parameter: STARD4 (DSF) ΔTm

Name the recorded STARD4 (DSF) ΔTm of the item COc1ccc2c(c1)C(=O)N[C@]1(CCC[C@@H]3C[C@H](O)CC[C@@]31C)N2 in your answer.
-0.0518 °C

Name the recorded STARD4 (DSF) ΔTm of the item Cc1nc2c(s1)CC[C@@H]1C[C@H](O)CC[C@]21C in your answer.
0.0902 °C

Name the recorded STARD4 (DSF) ΔTm of the item C[C@]12CC[C@@H](O)C[C@H]1CCc1c2nc2ccc(Cl)cc2c1-c1ccccc1 in your answer.
-0.00387 °C

Name the recorded STARD4 (DSF) ΔTm of the item C[C@]12CC[C@@H](O)C[C@H]1CCc1c2[nH]c2ccccc12 [Compound 10a] in your answer.
0.0293 °C

Name the recorded STARD4 (DSF) ΔTm of the item CCN(CC)CCO[C@H]1CC[C@@]2(C)C(=CC[C@@H]3[C@@H]2CC[C@]2(C)C(=O)CC[C@@H]32)C1 [Compound U18666A, reference compound] in your answer.
0.6 °C

Name the recorded STARD4 (DSF) ΔTm of the item C[C@]12CC[C@@H](O)C[C@H]1CCc1c2[nH]c2ccc(Cl)cc12 [Compound 10c] in your answer.
0.284 °C

Name the recorded STARD4 (DSF) ΔTm of the item C[C@]12CC[C@@H](O)C[C@H]1CCC[C@]21NC(=O)c2ccc(F)cc2N1 in your answer.
0.027 °C

Name the recorded STARD4 (DSF) ΔTm of the item C[C@]12CC[C@@H](O)C[C@H]1CCC[C@]21Nc2ccccc2-n2cccc21 in your answer.
0.7 °C

Name the recorded STARD4 (DSF) ΔTm of the item CC12CCC3CC1CCC21C(=Nc2ccc(N4CCOCC4)cc21)O3 (single isomer, unassigned; (+)) [(+)-19a] in your answer.
0.4 °C

Name the recorded STARD4 (DSF) ΔTm of the item C[C@]12CC[C@@H](O)C[C@H]1CCc1c2[nH]c2ccc(Br)cc12 [Compound 10b] in your answer.
0.2 °C

Name the recorded STARD4 (DSF) ΔTm of the item C[C@]12CC[C@@H](O)C[C@H]1CCc1nc3cc(Br)c(Br)cc3nc12 in your answer.
0.0567 °C

Name the recorded STARD4 (DSF) ΔTm of the item C[C@]12CC[C@@H](O)C[C@H]1CCC[C@]21NC(=O)c2ccccc2N1 in your answer.
-0.0769 °C

Name the recorded STARD4 (DSF) ΔTm of the item C[C@]12CC[C@@H](O)C[C@H]1CCc1nc3cc(Cl)c(Cl)cc3nc12 in your answer.
-0.111 °C

Name the recorded STARD4 (DSF) ΔTm of the item C[C@]12CC[C@@H](O)C[C@H]1CCC(=O)c1ccccc1NC2=O [Compound 11a] in your answer.
-0.0281 °C

Name the recorded STARD4 (DSF) ΔTm of the item C[C@]12CC[C@@H](O)C[C@H]1CCc1c2[nH]c2ccc(I)cc12 [Compound 10h] in your answer.
-0.0169 °C

Name the recorded STARD4 (DSF) ΔTm of the item C[C@]12CC[C@@H](O)C[C@H]1CCc1sc(-c3cccnc3)nc12 in your answer.
0.173 °C

Name the recorded STARD4 (DSF) ΔTm of the item C[C@]12CC[C@@H](O)C[C@H]1CCc1sc(-c3ccc(F)cc3)nc12 in your answer.
0.7 °C

---

Tested On: Aster-A (Homo sapiens)
Construct: Aster-A(359-547); GST (PreScission-cleavable) (N, cleaved yes); made in house; host or cells: E. coli OverExpress C41
Sequence (Q96CP6 359-547): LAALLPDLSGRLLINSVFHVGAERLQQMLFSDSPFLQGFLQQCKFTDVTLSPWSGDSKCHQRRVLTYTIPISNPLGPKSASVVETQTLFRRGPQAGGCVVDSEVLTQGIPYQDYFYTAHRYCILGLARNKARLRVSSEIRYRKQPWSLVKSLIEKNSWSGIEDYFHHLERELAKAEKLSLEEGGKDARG
Experiment Notes: Fluorescence polarisation (FP) competition with NBD-cholesterol, Aster-A
Type: binding
Measurement Conditions: single dose, Dose = 10 µM
Source text: Protein expression constructs Human ASTER domains of Aster-A(359-547), -B(364-552) and -C(318-504) were subcloned into a pGEX-6p-2rbs vector, thus introducing the cloning artifact ‘GPLGS’.3 The pGEX-6P-1-GST-OSBP(377- […] a gift from James H. Hurley (University of California).4 The pHIS_2His6_Thrombin_STARD4(2-205;C75S) plasmid was a gift from Young Jun Im (Chonnam National University).5 STARD5A was a gift from Nicola Burgess-Brown (Addgene plasmid #42392; http://n2t.net/addgene:42392; […]
Parameter: inhibition at 10 µM (%)
# output: bare number, implied unit %

Name the recorded inhibition at 10 µM of the item Cc1cc(C)c2c3c([nH]c2c1)[C@@]1(C)CC[C@@H](O)C[C@H]1CC3 [Compound 10j] in your answer.
-2

Name the recorded inhibition at 10 µM of the item CC12CCC3CC1CCC21C(=Nc2c(Br)cc(C(F)(F)F)cc21)O3 (centres unmarked) [Compound 15h] in your answer.
2

Name the recorded inhibition at 10 µM of the item C[C@]12CC[C@@H]3C[C@H]1CC[C@@]21C(=Nc2ccc(N4CCN(Cc5ccncc5)CC4)cc21)O3 [Compound 24] in your answer.
54

Name the recorded inhibition at 10 µM of the item C[C@]12CC[C@@H](O)C[C@H]1CCC(=O)c1cc(C(F)(F)F)ccc1NC2=O [Compound 11e] in your answer.
-2

Name the recorded inhibition at 10 µM of the item Cc1c2c(nc3ccccc13)[C@@]1(C)CC[C@@H](O)C[C@H]1CC2 [Compound 2a] in your answer.
1

Name the recorded inhibition at 10 µM of the item C[C@]12CC[C@@H](O)C[C@H]1CCc1c2[nH]c2c(F)cc(Cl)cc12 [Compound 10i] in your answer.
-8

Name the recorded inhibition at 10 µM of the item COc1ccc2c(c1)C(=O)CC[C@@H]1C[C@H](O)CC[C@]1(C)C(=O)N2 [Compound 11d] in your answer.
-1

Name the recorded inhibition at 10 µM of the item C[C@]12CC[C@@H](O)C[C@H]1CCC[C@]21Nc2ccccc2-n2cccc21 [Compound 4] in your answer.
-9

Name the recorded inhibition at 10 µM of the item Cc1cc2nc3c(nc2cc1C)[C@@]1(C)CC[C@@H](O)C[C@H]1CC3 [Compound 7b] in your answer.
-1

Name the recorded inhibition at 10 µM of the item CC12CCC3CC1CCC21C(=Nc2ccc(N4CCOCC4)cc21)O3 (racemic) [Compound 19a] in your answer.
60

Name the recorded inhibition at 10 µM of the item CC12CCC(O)CC1CCc1c2[nH]c2ccc(C(F)(F)F)cc12 (centres unmarked) [Compound 10g] in your answer.
-8

---

Consider the following molecules; for each one, report its ΔTm at 10 µM.
Tested On: STARD5 (Homo sapiens, UniProt Q9NSY2)
Construct: STARD5(6-213); host or cells: E. coli BL21(DE3)
Sequence (Q9NSY2 6-213): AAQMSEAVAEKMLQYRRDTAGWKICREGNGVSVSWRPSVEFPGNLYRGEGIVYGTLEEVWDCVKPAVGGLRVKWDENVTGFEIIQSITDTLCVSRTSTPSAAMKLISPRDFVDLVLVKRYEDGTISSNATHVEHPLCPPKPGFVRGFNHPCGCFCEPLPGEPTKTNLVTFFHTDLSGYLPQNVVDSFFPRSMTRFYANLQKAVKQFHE
Experiment Notes: Differential scanning fluorimetry (DSF), STARD5
Type: binding
Measurement Conditions: single dose, Dose = 10 µM
# output: bare number, implied unit °C

Print STARD5 (Homo sapiens, UniProt Q9NSY2) ΔTm at 10 µM for C[C@]12CC[C@@H]3C[C@H]1CC[C@@]21C(=Nc2ccc(N4CCN(Cc5ccncc5)CC4)cc21)O3 .
0.216

Print STARD5 (Homo sapiens, UniProt Q9NSY2) ΔTm at 10 µM for Cc1ccc2[nH]c3c(c2c1)CC[C@@H]1C[C@H](O)CC[C@]31C [Compound 10e] .
0.2

Print STARD5 (Homo sapiens, UniProt Q9NSY2) ΔTm at 10 µM for CC12CCC3CC1CCC21C(=Nc2ccc(Br)cc21)O3 (single isomer, unassigned; (+)) [(+)-15b] .
-0.0628

Print STARD5 (Homo sapiens, UniProt Q9NSY2) ΔTm at 10 µM for C[C@]12CC[C@@H]3C[C@H]1CC[C@@]21C(=Nc2ccc(Br)cc21)O3 (racemic) [Compound 15b] .
0.5

Print STARD5 (Homo sapiens, UniProt Q9NSY2) ΔTm at 10 µM for Cc1cc(C)c2c(c1)NC(=O)[C@@]1(C)CC[C@@H](O)C[C@H]1CCC2=O [Compound 11g] .
0.141

Print STARD5 (Homo sapiens, UniProt Q9NSY2) ΔTm at 10 µM for CC(C)(C)OC(=O)N1CCN(c2ccc3c(c2)C24CCC5CC(CCC52C)OC4=N3)CC1 (centres unmarked) [Compound 19e] .
0.7

Print STARD5 (Homo sapiens, UniProt Q9NSY2) ΔTm at 10 µM for C[C@]12CC[C@@H](O)C[C@H]1CCC(=O)c1cc(C(F)(F)F)ccc1NC2=O [Compound 11e] .
0.115

Print STARD5 (Homo sapiens, UniProt Q9NSY2) ΔTm at 10 µM for CC12CCC(O)CC1CCc1c2[nH]c2ccc(C(F)(F)F)cc12 (centres unmarked) [Compound 10g] .
0.162
